Values compiled from patent US20250326771A1.

The following molecules are shown together with reported EC50 values.
Test system: Jurkat HIV-luciferase clones
Measurement notes: Jurkat latency reversal assay
Format: cell-based
Condition set: Homo sapiens, 48 h; Jurkat latency reversal assay potency; read-out: Jurkat pEC50 (converted)

Look over these answered cases.
{"columns": ["Smiles", "Quantity kind", "Recorded value"],
 "data": [
  ["C[C@@H]1CN(CC(=O)N2CC(C)(C)c3[nH]c(=O)c(Cc4ccc(F)cc4)cc32)[C@@H](CN2CCO[C@H](COc3ccc(F)c(OC[C@@H]4CN(C[C@H]5CN[C@H](C)CN5CC(=O)N5CC(C)(C)c6[nH]c(=O)c(Cc7ccc(F)cc7)cc65)CCO4)c3)C2)CN1", "EC50", "0.49 to 12.6 nM"],
  ["C[C@@H]1CN(CC(=O)N2CC(C)(C)c3[nH]c(=O)c(Cc4ccc(F)cc4)cc32)[C@@H](CN2CCC(CCN(C)C(=O)c3ccc(C(=O)N(C)CCC4CCN(C[C@H]5CN[C@H](C)CN5CC(=O)N5CC(C)(C)c6[nH]c(=O)c(Cc7ccc(F)cc7)cc65)CC4)cc3)CC2)CN1", "EC50", "63.1 to 316 nM"]
]}

Inquiry: Lab note: record EC50 of C[C@@H]1CN(CC(=O)N2CC(C)(C)c3[nH]c(=O)c(Cc4ccc(F)cc4)cc32)[C@@H](CN2CCO[C@H](C(=O)NCc3cccc(CNC(=O)[C@@H]4CN(C[C@H]5CN[C@H](C)CN5CC(=O)N5CC(C)(C)c6[nH]c(=O)c(Cc7ccc(F)cc7)cc65)CCO4)c3)C2)CN1 tested on Jurkat HIV-luciferase clones.
Reply text: 12.6 to 63.1 nM

Inquiry: Lab note: record EC50 of C[C@@H]1CN(CC(=O)N2CC(C)(C)c3[nH]c(=O)c(Cc4ccc(F)cc4)cc32)[C@@H](CN2CCO[C@H](COc3cccc(OC[C@@H]4CN(C[C@H]5CN[C@H](C)CN5CC(=O)N5CC(C)(C)c6[nH]c(=O)c(Cc7ccc(F)cc7)cc65)CCO4)c3Br)C2)CN1 tested on Jurkat HIV-luciferase clones.
Reply text: 0.49 to 12.6 nM

Inquiry: Lab note: record EC50 of C[C@@H]1CN(CC(=O)N2CC(C)(C)c3[nH]c(=O)c(Cc4ccc(F)cc4)cc32)[C@@H](CN2CCO[C@H](COCc3cccc(COC[C@@H]4CN(C[C@H]5CN[C@H](C)CN5CC(=O)N5CC(C)(C)c6[nH]c(=O)c(Cc7ccc(F)cc7)cc65)CCO4)n3)C2)CN1 tested on Jurkat HIV-luciferase clones.
Reply text: 0.49 to 12.6 nM

Inquiry: Lab note: record EC50 of C[C@@H]1CN(CC(=O)N2CC(C)(C)c3[nH]c(=O)c(Cc4ccc(F)cc4)cc32)[C@@H](CN2CCO[C@H](C(=O)NCCOCCOCCOCCNC(=O)[C@@H]3CN(C[C@H]4CN[C@H](C)CN4CC(=O)N4CC(C)(C)c5[nH]c(=O)c(Cc6ccc(F)cc6)cc54)CCO3)C2)CN1 tested on Jurkat HIV-luciferase clones.
Reply text: 63.1 to 316 nM

Inquiry: Lab note: record EC50 of COC(=O)c1cc(F)ccc1Cc1cnc2c(c1)N(C(=O)CN1C[C@@H](C)NC[C@@H]1CN1CCO[C@H](COc3cccc(OC[C@@H]4CN(C[C@H]5CN[C@H](C)CN5CC(=O)N5CC(C)(C)c6ncc(Cc7ccc(F)cc7C(=O)OC)cc65)CCO4)c3)C1)CC2(C)C tested on Jurkat HIV-luciferase clones.
Reply text: 63.1 to 316 nM
